The reported numbers originate from patent US8449898B2.

tested on: Pseudoperonospora cubensis (the causal agent of cucumber downy mildew); assay: Test B: cucumber downy mildew, preventive spray on cucumber seedlings; format: in vivo; settings: Pseudoperonospora cubensis, component (b) alone, 0.04 ppm; read-out: CDM Obsd
Entries and their pest or weed control at 0.04 ppm
Respond numerically; units are % and should not be typed.

Example entries begin here.
1. O=C(Nc1ccccc1-c1ccc(Cl)cc1)c1cccnc1Cl [boscalid]
68
2. CO/N=C(/C(=O)OC)c1ccccc1COc1ccccc1C [kresoxim-methyl]
9
3. C[C@@]1(c2ccc(Oc3ccccc3)cc2)OC(=O)N(Nc2ccccc2)C1=O (racemic) [famoxadone]
100

Here is another molecule to look at.
Input CON=C(C(=O)OC)c1ccccc1CON=C(C)c1cccc(C(F)(F)F)c1 [trifloxystrobin] . Output pest or weed control at 0.04 ppm: 0
